// data source = ChEMBL document CHEMBL1143586

Study System: Neuraminidase (Influenza A virus (A/Puerto Rico/8/1934(H1N1)), UniProt P03468)
Sequence (P03468 whole entry): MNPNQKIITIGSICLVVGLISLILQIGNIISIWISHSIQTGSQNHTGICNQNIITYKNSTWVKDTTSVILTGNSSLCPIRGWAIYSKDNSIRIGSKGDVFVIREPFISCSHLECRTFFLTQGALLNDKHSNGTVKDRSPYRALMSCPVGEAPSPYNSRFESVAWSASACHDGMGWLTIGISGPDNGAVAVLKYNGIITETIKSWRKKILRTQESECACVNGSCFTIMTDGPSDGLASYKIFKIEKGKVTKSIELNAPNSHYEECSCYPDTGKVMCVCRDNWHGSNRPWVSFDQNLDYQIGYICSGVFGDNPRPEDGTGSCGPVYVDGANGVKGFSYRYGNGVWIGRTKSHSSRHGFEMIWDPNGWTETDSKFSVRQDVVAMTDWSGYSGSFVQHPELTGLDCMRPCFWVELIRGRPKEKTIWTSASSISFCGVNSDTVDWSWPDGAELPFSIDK

>  <Compound>
CC(=O)NC1[C@@H](N=C(N)N)C=C(C(=O)O)O[C@H]1[C@H](OC(=O)NCCCCCCCCCCCCNC(=O)O[C@H](C(O)CO)[C@@H]1OC(C(=O)O)=C[C@H](NC(=N)N)C1NC(C)=O)C(O)CO (stereo partly specified)

>  <IC50 (nM)>
7.86

$$$$
